B1: Nuclear receptor subfamily 4 group A member 2, residues 260 to 336; numbered along this chain, P43354 (parent)
chain: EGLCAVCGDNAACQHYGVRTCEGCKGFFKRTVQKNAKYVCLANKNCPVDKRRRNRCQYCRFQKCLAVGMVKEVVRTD

Variants of: B1
Test: abundance fitness (aPCA) (normalised: wild type 0, dead -1); higher = more abundant; growth selection in yeast, the domain comes from the species named
Details: Homo sapiens
Response key: criterion met means abundance fitness >= -0.02; criterion not met means abundance fitness < -0.02.

Look over these answered cases.
[
  {
    "mutant.code": "Y16M",
    "category.label": "criterion met"
  },
  {
    "mutant.code": "E22L",
    "category.label": "criterion not met"
  }
]

Does the variant F28W have recorded abundance fitness that is -0.02 or more? criterion not met

Would you mind doing T76L as well? criterion not met

Also V32E ? criterion met

Entry V32H please criterion not met
